- Test system: MCF7
- Test Description: Anticancer activity against Homo sapiens (human) MCF7 cells assessed as cell viability at 50 uM after 24 hr by MTT assay (reference value: 100 +/-2.74%)
- Format: functional
- Condition Summary: MCF7, 24 h, read-out: Activity
Metric: viability at 50 µM (%)
Supply the numeric figure in %, leaving out any unit text.

Would you please look over these solved cases?
[[record]]
chemical_smiles = "Cc1ccc(-c2cc(C(=O)Oc3ccc(-n4ccnc4)cc3)n(Cc3ccccc3)n2)cc1"
reading = 67.6

[[record]]
chemical_smiles = "CCCCCCCOc1ccc(OC(=O)c2cc(-c3ccc(C)cc3)nn2Cc2ccccc2)cc1"
reading = 100


API: the following record is the query input.
For the record Cc1ccc(-c2cc(C(=O)Oc3ccc(C(C)C)cc3)nn2Cc2ccccc2)cc1 , what value of viability at 50 µM is listed for MCF7? 79.6

Source: ChEMBL document CHEMBL3045001
